# Lookup of reported cytotoxicity at 10 µM keyed by entry
Experimental details: Toxicity liver stage against HepG2, at 10uM
Type: cell-based
Parameters: test concentration 10 uM, cell line HepG2-A16-CD81EGFP
Condition set: human, HepG2-A16-CD81EGFP cells; read-out: INHIBITION

{"columns": ["Compound", "Unit info", "cytotoxicity at 10 µM"],
 "data": [
  ["CCC(CNC(=O)C1CC1)(OC)c1ccccc1 (configuration not stated)", "%", -4.34],
  ["COc1ncccc1CN1C[C@@H]2COC[C@]2(COCC(=O)N(C)C)C1", "%", 7.81],
  ["CCc1nnc(CNC2CCCN(Cc3noc(C4CC4)n3)C2)o1 (configuration not stated)", "%", -5.46],
  ["Cn1cc(C2CCCN2Cc2csc(-c3ccsc3)n2)cn1 (configuration not stated)", "%", -8.21],
  ["Cc1cc(-c2ccc(C(=O)O)cc2)nc(C2CCCN(C(C)C)C2)n1 (configuration not stated)", "%", 5.61],
  ["Cc1ccc(C)c(CS(=O)(=O)CC(=O)N(C)Cc2cccc(F)c2)c1", "%", 4.42],
  ["O=C(CCc1ccsc1)Nc1cnccc1O", "%", 9.56],
  ["CS(=O)(=O)N1CCC(NC(=O)COc2cccc(Cl)c2)CC1", "%", -5.59],
  ["Cc1nc(N)ncc1C(=O)N1CCCC(CCc2ccc(F)c(F)c2)C1 (configuration not stated)", "%", -4.51],
  ["COc1cc(Br)c(S(=O)(=O)NC(=O)C(C)OC)cc1OC (configuration not stated)", "%", -22.9],
  ["COCCCNC(=O)c1cn(C(C)(C)C)c2ncccc12", "%", 0.0915],
  ["CCCc1nc(C)c(CNc2nc(C)nc3onc(C)c23)s1", "%", 1.6]
]}

====

Experimental details: Toxicity liver stage against HepG2, at 10uM
Assay type: cell-based
Set-up: test concentration 10 uM, cell line HepG2-A16-CD81EGFP
Condition set: human, HepG2-A16-CD81EGFP cells; read-out: INHIBITION

{"columns": ["Compound", "Unit info", "cytotoxicity at 10 µM"],
 "data": [
  ["CCc1nc(CN2CCCN(Cc3cnn(C)c3)CC2)no1", "%", -2],
  ["CC(NC(=O)N(C)Cc1cnn(C)c1)c1nncn1C (centres undefined)", "%", -3.03],
  ["Cc1cccc2nc(CN3CCCC(C)C3)cc(=O)n12 (centres undefined)", "%", 2.46],
  ["CNC(=O)[C@@H](c1ccccc1)N1CCC[C@H]1C(=O)NCc1ccccn1", "%", 5.62],
  ["CCc1cn[nH]c1C1CCCN(C(=O)c2noc(C)c2COC)C1 (centres undefined)", "%", -1.67],
  ["CS(=O)(=O)CCn1ccc(NC(=O)Cc2cccc(Cl)c2)n1", "%", -3.36],
  ["CCc1c(C(=O)O)nnn1-c1cccc(C)c1C", "%", -16.1],
  ["CC(CN1CCOCC1)OC(=O)c1ccccc1Cl (centres undefined)", "%", -4.52],
  ["CC(C)Nc1nc(N2CCOCC2)nc2c1CN(CC(=O)N(C)C)CC2", "%", 7.77],
  ["CCOC(=O)c1cnn(-c2cc(C)ccn2)c1N", "%", 11.3],
  ["O=c1[nH]ncc(NCCOc2ccc3c(c2)CCC3)c1Cl", "%", 34.5],
  ["O=C(Cc1ccc(F)cc1)N1CCn2cc(Cn3cncn3)nc2C1", "%", -74],
  ["CC(C)N(C(=O)c1ccccc1-c1nc2c([nH]1)CCNC2)C(C)C", "%", -45],
  ["CN(CCCO)c1nc(-c2ccc(C(N)=O)cc2)nc2c1CCNC2", "%", -2.86],
  ["COc1ccc(CN(CC2CCCO2)C(=O)CN2CCOC2=O)cc1 (centres undefined)", "%", -1.39],
  ["O=C(O)c1nnn(Cc2cccc(C(F)(F)F)c2)c1-c1ccncc1", "%", 1.93],
  ["CN(CCOCC1CC1)C(=O)Nc1ccc([S+](C)[O-])c(F)c1 (centres undefined)", "%", -1.7],
  ["CCc1nc(C)c(C(=O)NCCN2CCN(C(C)=O)CC2)s1", "%", -10.4],
  ["c1nc2c(c(NC3COC4(CCCC4)C3)n1)CCNCC2 (centres undefined)", "%", 0.383],
  ["CNCc1ccc([C@@H]2CN(C(C)=O)C[C@H]2C(N)=O)cc1", "%", 5.32],
  ["CC(=O)N1CCCC2(CCN(Cc3ccc(Cl)c(F)c3)C2)C1 (centres undefined)", "%", 9.58],
  ["CCc1nc(CNC(=O)Nc2nc(COC)cs2)cs1", "%", -0.67],
  ["CCn1nc(C)c2nc(C(C)C)nc(N3CCN(C)CC3)c21", "%", -2.45],
  ["Cc1c(Cl)c(C(=O)N2CC(c3cccnc3)C2)nn1C", "%", -5.23]
]}

====

# Lookup of reported cytotoxicity at 10 µM keyed by entry
Experimental details: Toxicity liver stage against HepG2, at 10uM
Type: cell-based
Design: test concentration 10 uM, cell line HepG2-A16-CD81EGFP
Condition set: human, HepG2-A16-CD81EGFP cells; read-out: INHIBITION

{"columns": ["Compound", "cytotoxicity at 10 µM"],
 "data": [
  ["CN(C)CCOCc1cncc2c1CCN(C1CCOC1)C2 (stereo unspecified)", "9.68%"],
  ["COCCN1CCC2(CC1)CN(C(=O)C1CC1)c1ccc(F)cc12", "-0.213%"],
  ["O=C(NCC1CCOC1)c1csc(-c2cccc(Cl)c2)n1 (stereo unspecified)", "-7.41%"],
  ["O=C1NCC[C@]12CN(Cc1cccnc1)C[C@H]2c1ccccc1", "-137%"],
  ["O=C(c1cccnc1)N1CCC2(CC1)COCCN(c1ncccn1)C2", "2.66%"],
  ["COC1COC2(CCN(C(=O)c3cnc(C)cn3)CC2)C1 (stereo unspecified)", "4.29%"]
]}

====

# Lookup of reported cytotoxicity at 10 µM keyed by entry
Experimental details: Toxicity liver stage against HepG2, at 10uM
Type: cell-based
Set-up: test concentration 10 uM, cell line HepG2-A16-CD81EGFP
Condition set: human, HepG2-A16-CD81EGFP cells; read-out: INHIBITION

{"columns": ["Compound", "Unit info", "cytotoxicity at 10 µM"],
 "data": [
  ["O=C(NC[C@H]1OC[C@@H](NC2CCC(F)(F)CC2)[C@@H]1O)c1ccccc1", "%", -4.1],
  ["CCCc1ccc(CN2CCN(C(=O)CC(C)C)[C@@H]3CS(=O)(=O)C[C@@H]32)o1", "%", 5.31],
  ["CN1CCN(CCCOc2ccccc2CN2C[C@H]3CC[C@H]2C3)CC1", "%", -7.88],
  ["O=C(CC(SC1CCCCC1)C(=O)O)c1ccc(Br)cc1 (stereo unspecified)", "%", 3.43],
  ["O=C(c1ccn(-c2cccc(Cl)c2)n1)N1CCN(C2CC2)CC1", "%", -7.03],
  ["Cc1ccccc1CC(=O)N1CCOCC1c1c(C)n[nH]c1C (stereo unspecified)", "%", -5.6],
  ["N#Cc1cccc(N2CCC(c3nccn3Cc3cscn3)CC2)n1", "%", 1.46],
  ["CCc1ccc(C(C)NCc2nccn2Cc2ccccc2)o1 (stereo unspecified)", "%", -1.2],
  ["CCOc1cc(C(=O)N2CC=C(c3ccc(O)cc3)CC2)ccn1", "%", -4.89],
  ["O=S(=O)(NCCCn1ccc2ccccc21)N1CCCCC1", "%", 12.8],
  ["CC(C)(C)c1cnc(CN2CCC(NC(=O)CC3CCCC3)CC2)o1", "%", -15.5]
]}

====

Experimental details: Toxicity liver stage against HepG2, at 10uM
Type: cell-based
Set-up: test concentration 10 uM, cell line HepG2-A16-CD81EGFP
Condition set: human, HepG2-A16-CD81EGFP cells; read-out: INHIBITION
# Lookup of reported cytotoxicity at 10 µM keyed by entry
Measured parameter: cytotoxicity at 10 µM (%)

{"columns": ["Compound", "Measured parameter", "Unit info", "Reported value"],
 "data": [
  ["N#Cc1cccnc1N1CCC(C2CCCCCN2C(N)=O)CC1 (stereo not drawn)", "cytotoxicity at 10 µM", "%", -2.51],
  ["O[C@@H]1CN(Cc2cccc(F)c2)CC[C@H]1NCc1ccccn1", "cytotoxicity at 10 µM", "%", -1.6],
  ["Cc1ccc(C(C(=O)O)N(C)CCCN2CCOCC2)c(C)c1 (stereo not drawn)", "cytotoxicity at 10 µM", "%", 0.129],
  ["CNC(=O)CN(C(=O)c1ccccc1)[C@H]1C[C@H]2CCOC[C@H]2C1", "cytotoxicity at 10 µM", "%", -4.36],
  ["Cc1ccc(CN(CCCn2ccnc2)Cc2c[nH]nc2C(C)(C)C)s1", "cytotoxicity at 10 µM", "%", -3.91],
  ["Cn1ncc2c1C(COCC1CC1)CN(S(C)(=O)=O)C2 (stereo not drawn)", "cytotoxicity at 10 µM", "%", -73.6],
  ["C=C1C(C)(C)[C@@H]2CC[C@]1(C(=O)N1CCC(Cn3cc(CO)nn3)CC1)C2", "cytotoxicity at 10 µM", "%", -6.01],
  ["Cc1ccc2c(c1)C1(CCNCC1)CC2NC1CC1 (stereo not drawn)", "cytotoxicity at 10 µM", "%", -117],
  ["Cc1cc(F)ccc1S(=O)(=O)N1C[C@@H](C)[C@@](C)(O)C1", "cytotoxicity at 10 µM", "%", -7.25],
  ["O=C([C@H]1CCCO1)N1CCC2(CC1)Cc1ccccc1CNC2=O", "cytotoxicity at 10 µM", "%", -101],
  ["CC(=O)NCCn1ccnc1-c1cccc(C(C)N(C)C)c1 (stereo not drawn)", "cytotoxicity at 10 µM", "%", 2.4],
  ["Cc1cccc(C)c1Nc1noc2c1CN(C(=O)c1cn(C)cn1)CC2", "cytotoxicity at 10 µM", "%", 12.9],
  ["Cc1cc(C(=O)NCC(C)C)c2c(C3CCCN3)noc2n1 (stereo not drawn)", "cytotoxicity at 10 µM", "%", 7.05],
  ["O=C(NC1CC1)c1ccccc1NCc1cn2cccnc2n1", "cytotoxicity at 10 µM", "%", 5.38],
  ["CS(=O)(=O)NCC1CCCN(C(=O)Nc2ccccc2F)C1 (stereo not drawn)", "cytotoxicity at 10 µM", "%", -145],
  ["COCCNC(=O)[C@H]1C[C@@H]2CCN(Cc3ccoc3)C[C@H]2O1", "cytotoxicity at 10 µM", "%", 2.31],
  ["O=C1CC2(CCN(C(=O)c3ccccc3)C2)Nc2ccccc2N1 (stereo not drawn)", "cytotoxicity at 10 µM", "%", 9.98],
  ["CC(C)CCC(=O)Nc1ccc2oc(=O)n(CCN(C)C)c2c1", "cytotoxicity at 10 µM", "%", -9.15],
  ["O=C1N(Cc2cccc(F)c2)CCC12CCN(c1ccccn1)CC2", "cytotoxicity at 10 µM", "%", -1.16],
  ["CSCCC(NC(N)=O)C(=O)N1CCC(Cc2ccccc2)CC1 (stereo not drawn)", "cytotoxicity at 10 µM", "%", 1.28],
  ["COc1ccc(CCNC(=O)C2CCC(Cn3cnnn3)CC2)cc1 (stereo not drawn)", "cytotoxicity at 10 µM", "%", 10.2],
  ["Cc1nn(C)c(N(C)C)c1CNC1CCOc2c(Cl)cccc21 (stereo not drawn)", "cytotoxicity at 10 µM", "%", -5.36],
  ["CCN(CC)C(=O)CN(C)CCn1nc2ccccn2c1=O", "cytotoxicity at 10 µM", "%", -149]
]}

These measurements were taken from ChEMBL document CHEMBL4513216.
